Target: human CD33 P46D (human, UniProt P20138 18-364)
Sequence (P20138 18-364 P46D limits assumed): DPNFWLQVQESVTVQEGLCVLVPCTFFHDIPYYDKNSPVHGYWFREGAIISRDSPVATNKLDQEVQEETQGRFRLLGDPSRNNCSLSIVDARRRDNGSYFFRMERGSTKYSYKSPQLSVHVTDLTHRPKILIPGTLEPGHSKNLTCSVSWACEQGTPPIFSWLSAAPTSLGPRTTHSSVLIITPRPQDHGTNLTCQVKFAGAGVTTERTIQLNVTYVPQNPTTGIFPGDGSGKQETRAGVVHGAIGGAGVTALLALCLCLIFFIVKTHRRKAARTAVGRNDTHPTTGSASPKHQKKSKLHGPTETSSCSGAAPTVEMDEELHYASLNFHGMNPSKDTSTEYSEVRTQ
Assay: flow cytometry, mutant on cells, IgG
Mean % WT Binding: recorded values
Just the number in % WT binding, nothing appended.

Refmab #4 (antibody, human IgG1, V domains shown, Tested in IgG format; human IgG1 Fc silent (PG-LALA)) VH: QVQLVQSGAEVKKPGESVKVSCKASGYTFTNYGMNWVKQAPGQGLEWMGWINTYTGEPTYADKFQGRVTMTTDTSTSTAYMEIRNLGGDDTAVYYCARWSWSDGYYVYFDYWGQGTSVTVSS VL: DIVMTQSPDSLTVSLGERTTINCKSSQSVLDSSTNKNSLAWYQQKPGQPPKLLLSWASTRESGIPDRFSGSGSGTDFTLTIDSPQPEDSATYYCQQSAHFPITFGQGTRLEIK; 110
Refmab #3 (antibody, human IgG1, V domains shown, Tested in IgG format; human IgG1 Fc silent (PG-LALA)) VH: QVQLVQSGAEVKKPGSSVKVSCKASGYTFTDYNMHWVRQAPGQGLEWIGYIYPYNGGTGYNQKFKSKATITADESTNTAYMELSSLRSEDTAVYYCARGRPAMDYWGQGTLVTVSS VL: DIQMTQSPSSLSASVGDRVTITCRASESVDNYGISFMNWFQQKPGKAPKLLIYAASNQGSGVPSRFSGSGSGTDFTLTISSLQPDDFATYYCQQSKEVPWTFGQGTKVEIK; 0.6

Kindly consider the entry below.
*Q* Give the reported Mean % WT Binding for this binder. Refmab #1 (antibody, human IgG1, V domains shown, Tested in IgG format; human IgG1 (Absolute Antibody hP67.6, Cat. No. Ab00283-10.0); also called hP67.6) VH: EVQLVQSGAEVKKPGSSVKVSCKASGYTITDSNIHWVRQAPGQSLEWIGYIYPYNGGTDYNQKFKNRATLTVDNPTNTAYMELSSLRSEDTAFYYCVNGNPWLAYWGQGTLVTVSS VL: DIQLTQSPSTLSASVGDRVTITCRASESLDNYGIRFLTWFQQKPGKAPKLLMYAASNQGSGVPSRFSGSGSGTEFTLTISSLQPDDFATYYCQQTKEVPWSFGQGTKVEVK
*A* 0.6
